# system-name: T1, human FLT3/FLK2 receptor protein (human, UniProt P36888 27-993)
# T1 construct: whole, on cells; Cell-surface target in the flow cytometry experiments (REH cells and SP2/0-Hu-FLT3 cells); also called CD135; Hu-FLT3
# T1 sequence (looked up): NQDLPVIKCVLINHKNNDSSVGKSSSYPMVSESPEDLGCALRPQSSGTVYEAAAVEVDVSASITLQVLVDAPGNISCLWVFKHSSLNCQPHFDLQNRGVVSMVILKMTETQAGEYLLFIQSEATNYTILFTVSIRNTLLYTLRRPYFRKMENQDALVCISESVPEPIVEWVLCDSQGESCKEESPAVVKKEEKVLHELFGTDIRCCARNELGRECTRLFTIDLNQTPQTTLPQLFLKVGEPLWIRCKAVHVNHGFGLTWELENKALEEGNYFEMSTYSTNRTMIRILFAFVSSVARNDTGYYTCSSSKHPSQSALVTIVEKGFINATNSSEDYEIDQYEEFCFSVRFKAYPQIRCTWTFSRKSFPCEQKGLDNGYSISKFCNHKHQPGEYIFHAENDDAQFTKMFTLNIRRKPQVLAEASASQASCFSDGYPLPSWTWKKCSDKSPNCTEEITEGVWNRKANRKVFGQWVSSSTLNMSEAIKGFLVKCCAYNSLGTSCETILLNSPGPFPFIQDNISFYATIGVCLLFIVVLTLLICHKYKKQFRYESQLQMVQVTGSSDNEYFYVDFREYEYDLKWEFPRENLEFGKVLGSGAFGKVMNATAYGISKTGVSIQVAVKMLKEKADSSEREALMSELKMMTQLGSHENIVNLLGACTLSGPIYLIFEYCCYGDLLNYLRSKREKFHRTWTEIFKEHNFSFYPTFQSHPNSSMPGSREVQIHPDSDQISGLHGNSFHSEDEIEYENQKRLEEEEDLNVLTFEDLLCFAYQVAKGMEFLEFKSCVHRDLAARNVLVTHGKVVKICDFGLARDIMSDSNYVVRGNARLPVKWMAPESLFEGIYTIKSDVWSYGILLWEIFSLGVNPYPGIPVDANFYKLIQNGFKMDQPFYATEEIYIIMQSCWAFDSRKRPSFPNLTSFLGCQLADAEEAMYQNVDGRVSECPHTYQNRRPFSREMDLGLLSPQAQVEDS
# assay-text: flow cytometry, hybridoma supernatant on REH cells; same table: unstained 1292, secondary Ab alone 6905 (0.78%), isotype 13307 (12%)
endpoint-label: MFI (IgC FITC)
Give the figure only, with no unit attached.

Ask: I have this binder here, MHC1696-2-8IA (antibody, V domains shown, Mouse hybridoma monoclonal antibody; also called A281A) VH: EIQLQQSGPELVKPGASVKVSCKASGYSFIDYNMYWVKQSHGKSLEWIGYINPYNGGTSNNQKFKDKATLTVDKSSSTAFMHLNSLTSEDSAVYYCARGTTGDYWGQGTTLTVSS VL: DTVLTQSPATLSVTPGDSVSLSCRASQSISNNLHWYQQKSHESPRLLIKYGFQSISGIPSRFSGSGSGTDFTLRINSVETEDFGMYFCQQTNSWPLTFGAGTKLELK , and I need its recorded MFI (IgC FITC).
Reply: 11000
